Experiment: Permeability of the compound at […] after 3 hrs by artificial membrane permeability assay
Assay type: ADME
Details: PAMPA; read-out: permeability
Give y when the value for Papp at 3 h is at least 30 ×10⁻⁶ cm/s. Give n when it is less.

A selection of reference data follows.
N#CCC(=O)Nc1cccc(-c2ccc(Cl)c(Cl)c2)n1	n
CC(=O)Nc1nc(-c2cccc(Cl)c2)cs1	y
CC(=O)Nc1nc(-c2cc(Cl)c(Cl)s2)cs1	n
O=C(NC1=NN(c2ccc(Cl)c(Cl)c2)CC1)c1ccncn1	y

Now examine the next entry.
Is Papp at 3 h for CC(=O)Nc1nc(-c2ccc(Cl)c(F)c2)cs1 at or above 30 ×10⁻⁶ cm/s?
y
